assay: Fluorescence rating / quantum yield in aqueous solution; type: physicochemical; settings: relative scale of 1 to 10 where 10 is best; excitation at maximum absorbance wavelength, constant concentration and pH
quantityKind: Fluorescence

Worked examples, 5 molecules total:
CC1=CC(=O)C=C(C(C)C)C12C1=CC(=O)C=CC1=Nc1ccc(O)cc12 (stereo not shown)	7
CC1=CC(=O)C=C(C)C12C1=CC(=O)C=CC1=Nc1ccc(O)cc12	7
CC(C)(C)C1=CC2(C=CC1=O)C1=CC(=O)C=CC1=Nc1ccc(O)cc12 (stereo not shown)	6
CC1=C(C)C2(C3=CC(=O)C=CC3=Nc3ccc(O)cc32)C(C)=C(C)C1=O	10
O=C1C=CC2=Nc3ccc(O)cc3C3(C=CC(=O)C4=C3CCCC4)C2=C1 (stereo not shown)	8

P = CC1=CC(=O)C(C)=C(C)C12C1=CC(=O)C=CC1=Nc1ccc(O)cc12 (stereo not shown)
Q = O=C1C=CC2(C=C1)C1=CC(=O)C=CC1=Nc1ccc(O)cc12
Short answer wanted: higher Fluorescence, P or Q ? Pick one; state its label.
P
(P: 10, Q: 2)

// data source = patent US5567624A
